All figures here come from patent US12447201B2.

target or system: HLA-A*0201 (Homo sapiens, UniProt P04439, D140Y/D185E/D98H/E176V/E277Q/G131W/G231S/I119V/I121R/I166T/I218V/L300P/L318F/N151K/N90K/P208A/P217A/Q86G/Q94H/R138H/R169H/T345S)
Construct: human tumoral cell T2 which expresses the HLA-A*0201 molecule, but which is TAP1/2 negative; endogenous in cells; host or cells: T2 cells (human, TAP1/2 negative)
experiment summary: Affinity of the peptide to HLA-A*0201 measured on T2 cell line (FACS, anti-HLA-A2 labelling)
Assay type: binding
setup conditions: Example 3, FIG. 4, T2 cells

{"sequence record": "FLPFGFILV [IL13RA2-B]", "binding to HLA-A*0201": "bind strongly"}
{"sequence record": "YLYTFLIST [IL13RA2-B2]", "binding to HLA-A*0201": "bind strongly"}
